This collection of values is drawn from patent US9370506B2.

Molecular target: ALDH2 (Homo sapiens, UniProt P05091, E504K)
Sequence (P05091 18-517 E504K): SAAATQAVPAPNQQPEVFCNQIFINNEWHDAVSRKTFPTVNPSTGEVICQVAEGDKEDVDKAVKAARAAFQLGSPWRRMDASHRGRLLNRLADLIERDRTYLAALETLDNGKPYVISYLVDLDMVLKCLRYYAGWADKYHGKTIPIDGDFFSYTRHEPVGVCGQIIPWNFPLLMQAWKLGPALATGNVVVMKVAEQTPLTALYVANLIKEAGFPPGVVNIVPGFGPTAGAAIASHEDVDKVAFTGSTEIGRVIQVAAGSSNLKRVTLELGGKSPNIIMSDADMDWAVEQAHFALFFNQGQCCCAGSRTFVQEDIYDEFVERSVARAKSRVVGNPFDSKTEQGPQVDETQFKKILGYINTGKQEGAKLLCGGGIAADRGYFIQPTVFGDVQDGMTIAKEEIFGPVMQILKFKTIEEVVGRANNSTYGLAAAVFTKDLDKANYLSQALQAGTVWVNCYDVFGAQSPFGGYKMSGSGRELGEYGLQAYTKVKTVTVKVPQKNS
Test: Screening for ALDH2 agonists (NAD+ to NADH, optionally diaphorase/resazurin-coupled)
Settings: increase of ALDH2 activity; 10 mM acetaldehyde as substrate
Let's look at some compounds and their measured pEC50.
Field pEC50 (float): negative decimal logarithm of the concentration in molar.

Solved cases (5 shown):
compound=O=C(Cn1c2ccccc2c2cn[nH]c(=O)c21)NCc1ccc2c(c1)OCO2 value=5.53
compound=Cc1ccc(CNS(=O)(=O)c2cc(-c3cc(C)no3)ccc2C)cc1 value=5.30
compound=NC(=O)c1cc(S(=O)(=O)NCc2ccc3c(c2)OCO3)cs1 value=5.34
compound=CCn1cnc2c(=O)oc3ccc(S(=O)(=O)NCc4ccc5c(c4)OCO5)cc3c21 value=5.76
compound="Cc1ccc(N2CC(c3nc(-c4ccncc4)no3)CC2=O)cc1F (stereo not shown)" value=5.25

Reported pEC50 for O=C(C1COc2cc(S(=O)(=O)NCc3ccccc3Cl)ccc2O1)N1CCCCCC1 (stereo not shown) was 5.66

Reported pEC50 for Cc1ccc(-n2cc(-c3ccccc3)c3c(N4CCN(CCO)CC4)ncnc32)cc1Cl was 5.45

Reported pEC50 for Cc1ccc(CNC(=O)C(C)SC2=Nc3ccccc3C3=NC(C(C)C)C(=O)N23)cc1 (stereo not shown) was 5.58

Reported pEC50 for CCCCC(=O)Nc1cc(-c2ccc(C)cc2)no1 was 5.85

Reported pEC50 for O=C(NCc1ccc2c(c1)OCO2)c1cc(-n2cnnc2)ccc1Cl was 5.96
